# System: wheat (winter wheat, Triticum aestivum)
# ASSAY NOTES: Test C greenhouse herbicide test, pre- and postemergence
# Type: in vivo
# MEASUREMENT CONTEXT: Postemergence, 125 g ai/ha; scale 0 to 100, 0 is no effect, 100 is complete control
Listing of recorded Plant response rating, Wheat by entry.

The cases that follow already have their Plant response rating, Wheat on record.
CCc1ccc2ccccc2c1-c1c(O)c(C)nn(C)c1=O    25
CCC(=O)Oc1c(C)nn(C)c(=O)c1-c1c(C)ccc2ccccc12    5
CCc1sc2ccc(C)cc2c1-c1c(O)c(C)nn(C)c1=O    0
Cc1ccc2sc(Br)c(-c3c(O)c(C)nn(C)c3=O)c2c1    0

Identify Plant response rating, Wheat associated with the compound Cn1nc(Br)c(O)c(-c2cccc3ccccc23)c1=O
0

Identify Plant response rating, Wheat associated with the compound Cc1ccc2sc(C)c(-c3c(OC(=O)OC(C)C)c(C)nn(C)c3=O)c2c1
0

Identify Plant response rating, Wheat associated with the compound Cc1sc2ccccc2c1-c1c(O)c(Cl)nn(C)c1=O
0

Identify Plant response rating, Wheat associated with the compound Cc1nn(C)c(=O)c(-c2cccc3ccc(Br)cc23)c1O
0

Identify Plant response rating, Wheat associated with the compound COC(=O)Oc1cnn(C)c(=O)c1-c1c(C)sc2ccccc12
0

Identify Plant response rating, Wheat associated with the compound Cc1ccc2ccccc2c1-c1c(OC(=O)OC(C)C)c(C)nn(C)c1=O
5
